# system.name: Glucocorticoid Receptor (GR) (Homo sapiens, UniProt P04150)
# Sequence (P04150 whole entry): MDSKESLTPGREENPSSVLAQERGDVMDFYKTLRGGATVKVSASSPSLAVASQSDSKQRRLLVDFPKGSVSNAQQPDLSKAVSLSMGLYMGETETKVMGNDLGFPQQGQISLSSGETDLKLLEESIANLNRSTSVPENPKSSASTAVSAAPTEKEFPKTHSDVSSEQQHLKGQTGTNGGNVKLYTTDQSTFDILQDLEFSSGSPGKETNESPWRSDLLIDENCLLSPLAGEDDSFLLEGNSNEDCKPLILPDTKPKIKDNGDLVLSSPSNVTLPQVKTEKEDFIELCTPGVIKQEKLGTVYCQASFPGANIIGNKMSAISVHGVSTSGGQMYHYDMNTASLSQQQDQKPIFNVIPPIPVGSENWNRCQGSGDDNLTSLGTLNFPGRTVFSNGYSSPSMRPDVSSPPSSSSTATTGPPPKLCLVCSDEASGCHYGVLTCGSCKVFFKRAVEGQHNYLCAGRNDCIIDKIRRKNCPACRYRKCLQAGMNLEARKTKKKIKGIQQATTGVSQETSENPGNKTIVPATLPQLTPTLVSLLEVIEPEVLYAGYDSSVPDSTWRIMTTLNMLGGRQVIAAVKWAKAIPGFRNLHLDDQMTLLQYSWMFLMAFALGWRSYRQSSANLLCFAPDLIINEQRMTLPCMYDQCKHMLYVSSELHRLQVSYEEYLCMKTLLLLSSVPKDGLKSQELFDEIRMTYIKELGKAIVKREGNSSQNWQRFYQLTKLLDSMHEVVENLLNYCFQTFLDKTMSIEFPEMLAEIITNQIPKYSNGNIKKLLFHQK
Catalogue of compounds with associated IC50

| compound | IC50 |
| --- | --- |
| CCn1nc(-c2ccccn2)c2c1NCCSC2c1ccc(C(=O)Nc2cccnc2C)cc1C (stereo not shown) [H.4] | < 100 nM |
| CCn1nc(-c2ccncn2)c2c1NCCSC2c1ccc(Br)cc1C (stereo not shown) | < 100 nM |
| CCn1nc(-c2ccccn2)c2c1N[C@@H](C)CS[C@H]2c1ccc(C#CCO)cc1C (single isomer, unassigned) | < 100 nM |
| CCn1nc(-c2ccccn2)c2c1NCCSC2c1ccc(C(=O)Nc2cc(C)no2)cc1C (stereo not shown) | < 100 nM |
| Cc1cc(Cl)ccc1[C@H]1SC(C)(C)CNc2c1c(C)nn2C (single isomer, unassigned) | < 100 nM |
| Cc1cc(Cl)cnc1C1SCCNc2c1c(-c1ccccn1)nn2C (stereo not shown) | 100 to 1000 nM |
| Cc1cc(Cl)ccc1C1SCCNc2c1c(-c1cc(Br)ccn1)nn2C (stereo not shown) | < 100 nM |
| Cn1nc(-c2ccccn2)c2c1NC(=O)CSC2c1ccc(Br)cc1Cl (stereo not shown) | 100 to 1000 nM |
| Cc1cc(C#N)ccc1C1SCCNc2c1c(-c1ccccn1)nn2C (single isomer, unassigned) [M.20] | < 100 nM |
| CCn1nc(-c2ccccn2)c2c1NC(=O)CCC2c1ccc(Br)cc1C (stereo not shown) | < 100 nM |
| Cc1cc(Br)ccc1[C@@H]1SC[C@H](CO)Nc2c1c(-c1ccccn1)nn2C (racemic) | < 100 nM |
| Cc1cc(C(=O)Nc2cccnc2C)ccc1[C@H]1SCCNc2c1c(-c1ccccn1)nn2C | 100 to 1000 nM |
| CCn1nc(-c2ccccn2)c2c1NCCSC2c1ccc(C(=O)Nc2nnc[nH]2)cc1C (stereo not shown) | < 100 nM |
| Cc1sc(Br)cc1C1SCCNc2c1c(-c1ccccn1)nn2C (stereo not shown) | < 100 nM |
| Cc1ncccc1NC(=O)c1ccc(C2SCCNc3c2c(-c2ccccn2)nn3C)c(Cl)c1 (single isomer, unassigned) | 1000 to 10000 nM |
| Cc1ccc(C)c(C2SCCNc3c2c(-c2ccccn2)nn3C)c1 (stereo not shown) | < 100 nM |
| Cc1cc(OCC(N)=O)ccc1[C@@H]1SC[C@@H](C)Nc2c1c(-c1ccccn1)nn2C (single isomer, unassigned) | < 100 nM |
| Cn1nc(-c2ccncc2)c2c1NCCSC2c1ccc(Cl)cc1Cl (stereo not shown) | 100 to 1000 nM |
| Cc1cc(Cl)ccc1C1SCC(C(C)C)Nc2c1c(-c1ccccn1)nn2C (stereo not shown) | < 100 nM |
| Cc1nn(C)c2c1C(c1ccc(Cl)cc1Cl)SC1(CCOCC1)CN2 (stereo not shown) | < 100 nM |
| Cn1nc(-c2cc(F)cc(F)c2)c2c1NCCSC2c1ccc(Cl)cc1Cl (stereo not shown) | < 100 nM |
| Cn1nc(-c2ccccn2)c2c1NCCSC2c1ccccc1Cl (stereo not shown) | < 100 nM |
| CC(=O)N1CCN(c2ccc(-c3ccc(C4SCCNc5c4c(-c4ccccn4)nn5C)c(Cl)c3)cn2)CC1 (stereo not shown) | 1000 to 10000 nM |
| Cn1nc(C2CC2)c2c1NCC(C)(C)SC2c1ccc(Cl)cc1Cl (stereo not shown) | < 100 nM |
| Cc1cc(Cl)ccc1C1SCCNc2c1c(-c1ccn[nH]1)nn2C (stereo not shown) | 100 to 1000 nM |
| CCn1nc(-c2ccccn2)c2c1NCCSC2c1ccc(C(=O)Nc2cc(C)nn2C)cc1C (stereo not shown) | < 100 nM |
| Cn1nc(-c2ccccn2)c2c1NCC(C)(C)SC2c1ccc(Cl)cc1Cl (stereo not shown) | < 100 nM |
| Cc1ccc(Oc2ccc(C3SC(C)(C)CNc4c3c(C)nn4C)cc2)cc1 (stereo not shown) | 100 to 1000 nM |

====

# System: IL-6 in A549 cells stimulated with IL-1β
# experimental.protocol: A549 Cell Assay to Measure Inflammation Markers (inhibition of IL-1β-induced IL-6)
# Format: cell-based
# condition.set: Homo sapiens, A549, A549 Cell Assay to Measure Inflammation Markers; intrinsic activity, Emax class ranges
Catalogue of compounds with associated Emax

| compound | system.name | Emax |
| --- | --- | --- |
| Cc1ccc(C#N)cc1C1SCCNc2c1c(-c1ccccn1)nn2C (centres unmarked) | IL-6 in A549 cells stimulated with IL-1β | < 50% |
| Cc1nn(C)c2c1C(c1ccc(Cl)cc1Cl)SC1(CCCC1)CN2 (centres unmarked) | IL-6 in A549 cells stimulated with IL-1β | < 50% |
| Cn1nc(-c2ccccn2)c2c1NCCSC2c1ccc(Cl)cc1F (centres unmarked) | IL-6 in A549 cells stimulated with IL-1β | < 50% |
| Cc1ccc(C)c(C2SC(C)(C)CNc3c2c(C2CC2)nn3C)c1 (centres unmarked) | IL-6 in A549 cells stimulated with IL-1β | < 50% |
| CCn1nc(C2CC2)c2c1NCC(C)(C)SC2c1ccc(Cl)cc1C (centres unmarked) | IL-6 in A549 cells stimulated with IL-1β | < 50% |

====

Quick record: pIC50, Glucocorticoid Receptor (GR) (Homo sapiens).
pIC50: −log10 of the molar value.

| compound | pIC50 |
| --- | --- |
| Cc1cc(C(F)(F)F)ccc1C1SCCNc2c1c(-c1ccccn1)nn2C (stereo not shown) [D.41] | > 7.00 |
| Cc1cc(C(F)(F)F)ccc1C1SC(C)(C)CNc2c1c(C)nn2C (stereo not shown) [D.61] | > 7.00 |
| Cc1cccc(C2SCCNc3c2c(-c2ccccn2)nn3C)c1C (stereo not shown) [D.33] | 6.00 to 7.00 |
| Cc1n[nH]c2c1C(c1ccc(Cl)cc1Cl)SC(C)(C)CN2 (stereo not shown) [D.63] | 5.00 to 6.00 |
| Cc1cc(OCC#N)ccc1[C@@H]1SC[C@@H](C)Nc2c1c(-c1ccccn1)nn2C (single isomer, unassigned) [M.23] | > 7.00 |
| Cc1ncccc1NC(=O)c1ccc([C@H]2SC[C@@H](C)Nc3c2c(-c2ccccn2)nn3C)c(C#N)c1 (single isomer, unassigned) [M.19] | 5.00 to 6.00 |
| Cn1nc(C2CCCC2)c2c1NCCSC2c1ccc(Cl)cc1Cl (stereo not shown) [D.77] | > 7.00 |
| COC(=O)c1ccc(C2SCC(C)Nc3c2c(-c2ccccn2)nn3C)c(C)c1 (stereo not shown) [E.7] | > 7.00 |
| Cn1nc(-c2ccccn2)c2c1NCCS[C@H]2c1ccc(Br)cc1Cl (single isomer, unassigned) [M.2] | > 7.00 |
| Cc1cc(C(=O)Nc2cccnc2)ccc1C1SC(C)(C)CNc2c1c(C)nn2C (stereo not shown) [H.1] | 5.00 to 6.00 |
| Cc1cc(C#N)ccc1C1SCCNc2c1c(-c1ccccn1)nn2C (single isomer, unassigned) [M.21] | > 7.00 |
| Cc1ncccc1NC(=O)c1ccc(C2SCCNc3c2c(-c2ccccn2)nn3C)cc1 (stereo not shown) [F.3] | 5.00 to 6.00 |
| Cc1cc(Cl)ccc1[C@H]1S[C@H](CCO)CNc2c1c(C)nn2C (single isomer, unassigned) [M.14] | 6.00 to 7.00 |
| Cc1nn(C)c2c1C(c1ccc(Cl)cc1Cl)SC(C)(C)CN2 (stereo not shown) [D.4] | > 7.00 |
| Cc1cc(Br)ccc1[C@@H]1SC[C@@H](CO)Nc2c1c(-c1ccccn1)nn2C (racemic) [K.10] | > 7.00 |
| Cc1cc(Br)ccc1C1SCCNc2c1c(-c1ccccn1)nn2C (stereo not shown) | > 7.00 |
| Cc1cc(C#CCO)ccc1[C@@H]1SC[C@@H](C)Nc2c1c(-c1ccccn1)nn2C (single isomer, unassigned) [M.70] | > 7.00 |
